meta.source: the supplement of paper PMC10567573

B1: RSAD1 (parent)
chain: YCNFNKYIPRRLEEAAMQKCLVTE

variants of: B1; assay: protein stability index of a GFP-peptide fusion (GPS, HEK-293T) (PSI 1-6); higher = more stable; conditions: c terminus: a fixed tail appended;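 note: lentivirally expressed fusions sorted by FACS into six bins by GFP to DsRed ratio, PSI derived from sequencing read proportions per bin multiplied by bin number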
endpoint: protein stability index
Enter a number only.

Q18I | 2.76
Y1L | 2.72

// moving on: another record for protein stability index
Request: Fill in the blank: the reported protein stability index of R11D is ____.
Response: 1.84
